Each record here notes measured T/C.
Test system: MX-1 breast xenograft, nude mice, tumor weight T/C
run.description: NCI In Vivo Anticancer Drug Screen. Data for tumor model Human Mammary Carcinoma MX-1 Xenograft (intrarenal inoculation) in NU/NU Swiss (nude) mice
details: endpoint: mean tumor weight change; dose: 600.0 mg/kg/injection; schedule: Q04DX003 (sc); vehicle: saline with Tween-80; higher = larger tumour
Inconclusive results are not listed.

CCCCCCCCCCCCCCCC(=O)OCC1OC(n2ccc(N)nc2=O)C(O)C1O (stereo unspecified)
11 % of control

Let me know recorded T/C for O=C(NC1CCCCC1)OCc1c(COC(=O)NC2CCCCC2)c(-c2ccc(Cl)c(Cl)c2)n2c1CCC2 , thanks.
114 % of control

Let me know recorded T/C for CC1c2ccccc2CC(CCN(C)C)c2ccccc21 (stereo unspecified) , thanks.
-19 % of control

Let me know recorded T/C for Nc1nc(N)c(N=O)c(Nc2ccc(Br)cc2)n1 , thanks.
42 % of control

Let me know recorded T/C for O=C(Nc1nncs1)c1ccncc1 , thanks.
109 % of control

Let me know recorded T/C for O=C1NC(=O)/C(=C/C=C/c2ccccc2)S1 , thanks.
98 % of control

Let me know recorded T/C for CCC1=C2C(=O)c3ccccc3C2=C(C)S(=O)(=O)O1 , thanks.
104 % of control

Let me know recorded T/C for CCCN1COC(OCC)C(C)(C)C1 (stereo unspecified) , thanks.
94 % of control

====

System: MX-1 breast xenograft, nude mice, tumor weight T/C
run.description: NCI In Vivo Anticancer Drug Screen. Data for tumor model Human Mammary Carcinoma MX-1 Xenograft (intrarenal inoculation) in NU/NU Swiss (nude) mice
details: endpoint: mean tumor weight change; dose: 12.5 mg/kg/injection; schedule: Q04DX003 (sc); vehicle: saline; higher = larger tumour
Results filed as inconclusive are left out.
Each record here notes measured T/C.

CNc1nc2c(N)ncnc2n1C1OC(CO)C(O)C1O (centres undefined)
111 % of control

Let me know recorded T/C for CN(N=O)C(N)=O , thanks.
83 % of control

Let me know recorded T/C for C1CN(P2(N3CC3)=NP(N3CC3)(N3CC3)=NP(N3CC3)(N3CC3)=N2)CCO1 (centres undefined) , thanks.
36 % of control

Let me know recorded T/C for C[CH2][Ge]1([CH2]C)[CH2]CC2(CCN(CCCN(C)C)C2)C[CH2]1 , thanks.
72 % of control

Let me know recorded T/C for [N-]=[N+]=CC(=O)CCC(N)C(=O)O (centres undefined) , thanks.
1 % of control

Let me know recorded T/C for ClCC[Se](Cl)(Cl)c1ccccc1 , thanks.
89 % of control

====

Test system: MX-1 breast xenograft, nude mice, tumor weight T/C
run.description: NCI In Vivo Anticancer Drug Screen. Data for tumor model Human Mammary Carcinoma MX-1 Xenograft (intrarenal inoculation) in NU/NU Swiss (nude) mice
details: endpoint: mean tumor weight change; dose: 25.0 mg/kg/injection; schedule: Q04DX003 (sc); vehicle: Klucel (hydroxypropylcellulose) (HPC); higher = larger tumour
Procedure: The antitumor activity of compounds was measured in mice bearing transplantable tumors. Survival or tumor size were measured and the results are expressed as the measurement made in the treated group (T) divided by the measurement made in the vehicle treated control group (C). The tumor model used in this assay is Human Mammary Carcinoma MX-1 Xenograft (intrarenal inoculation) in NU/NU Swiss (nude) mice
Inconclusive results are not listed.
endpoint.label: T/C

// known answers, use as guide
Nc1nc(N)c2cc(CNc3ccc(C(=O)NC(CC(=O)O)CC(=O)O)cc3)ccc2n1
86 % of control
C/C(=N\N=C(/[Se])N1CC2CCC(CC2)C1)c1ccccn1
106 % of control
Cc1ccc2c(c1)C(=O)N(CC[P+](c1ccccc1)(c1ccccc1)c1ccccc1)C2=O
110 % of control
CSc1cc(C)[o+]c(C)c1
76 % of control
O=C(Nc1ccc(N=C=S)cc1Cl)c1cc(Cl)cc(Cl)c1O
105 % of control

Shift focus to the following entry.
Let me know recorded T/C for CN(C)N=Nc1cccc(C(N)=O)c1 , thanks.
100 % of control

====

Each record here notes measured T/C.
System: MX-1 breast xenograft, nude mice, tumor weight T/C
run.description: NCI In Vivo Anticancer Drug Screen. Data for tumor model Human Mammary Carcinoma MX-1 Xenograft (intrarenal inoculation) in NU/NU Swiss (nude) mice
details: endpoint: mean tumor weight change; dose: 50.0 mg/kg/injection; schedule: Q01DX010 (sc); vehicle: Klucel (hydroxypropylcellulose) (HPC); higher = larger tumour
Inconclusive results are not listed.

// known answers, use as guide
CCCCc1ccc(-n2c(C)c(COC(=O)NC)c(COC(=O)NC)c2C)cc1
34 % of control
CC/C(=C(\c1ccccc1)c1ccc(OCCN(C)C)cc1)c1ccccc1
178 % of control

Let me know recorded T/C for C/C(=C\c1ccccc1)[N+](=O)[O-] , thanks.
88 % of control

====

Each record here notes measured T/C.
System: MX-1 breast xenograft, nude mice, tumor weight T/C
run.description: NCI In Vivo Anticancer Drug Screen. Data for tumor model Human Mammary Carcinoma MX-1 Xenograft (intrarenal inoculation) in NU/NU Swiss (nude) mice
details: endpoint: mean tumor weight change; dose: 400.0 mg/kg/injection; schedule: Q01DX010 (sc); vehicle: Klucel (hydroxypropylcellulose) (HPC); higher = larger tumour
Records with an inconclusive call do not appear.

CC1CN=C(c2ccc(NC(=O)c3ccc(C(=O)Nc4ccc(C5=NCC(C)N5)cc4)cc3)cc2)N1 (stereo unspecified)
110 % of control

Let me know recorded T/C for CC(=O)O[C@H]1C(=O)[C@@]2(C)[C@H]([C@H](OC(=O)c3ccccc3)[C@]3(O)C[C@H](OC(=O)[C@H](O)[C@@H](NC(=O)c4ccccc4)c4ccccc4)C(C)=C1C3(C)C)[C@]1(OC(C)=O)CO[C@@H]1C[C@@H]2O , thanks.
6 % of control

Let me know recorded T/C for CN(C)N=Nc1ccc(S(N)(=O)=O)cc1 , thanks.
42 % of control

Let me know recorded T/C for C=CCNc1ccc(C)cc1 , thanks.
16 % of control

Let me know recorded T/C for Cc1ccc2c(ccc(CC(=S)[S-])[n+]2C)c1 , thanks.
107 % of control

Let me know recorded T/C for Cc1ccc(S(=O)(=O)N/N=C/C(=O)O)cc1 , thanks.
58 % of control

Let me know recorded T/C for CNC(=O)OCc1c(COC(=O)NC)c(C)n(-c2ccc(OC)cc2)c1C , thanks.
-61 % of control

Let me know recorded T/C for O=C([CH-]C(=O)C(F)(F)F)c1ccccc1.O=C([CH-]C(=O)C(F)(F)F)c1ccccc1.O=C([CH-]C(=O)C(F)(F)F)c1ccccc1.O=C([CH-]C(=O)C(F)(F)F)c1ccccc1.[Eu+3].c1ccncc1 , thanks.
178 % of control

Let me know recorded T/C for ClCCCCCCCCCCc1ccccc1 , thanks.
116 % of control

Let me know recorded T/C for CN(C)/N=N/c1nc[nH]c1C(N)=O , thanks.
14 % of control

Let me know recorded T/C for CC(=O)OCC1OC(OC2=C(CC=C(C)C)C(=O)c3ccccc3C2=O)C(OC(C)=O)C(OC(C)=O)C1OC(C)=O (stereo unspecified) , thanks.
194 % of control

====

Test system: MX-1 breast xenograft, nude mice, tumor weight T/C
run.description: NCI In Vivo Anticancer Drug Screen. Data for tumor model Human Mammary Carcinoma MX-1 Xenograft (intrarenal inoculation) in NU/NU Swiss (nude) mice
details: endpoint: mean tumor weight change; dose: 300.0 mg/kg/injection; schedule: Q04DX003 (sc); vehicle: saline with Tween-80; higher = larger tumour
Records with an inconclusive call do not appear.
endpoint.label: T/C

Let me know recorded T/C for O=S(=O)(N=N/C=C1\C=CC=CN1O)c1cccs1 , thanks.
72 % of control

====

Each record here notes measured T/C.
System: MX-1 breast xenograft, nude mice, tumor weight T/C
run.description: NCI In Vivo Anticancer Drug Screen. Data for tumor model Human Mammary Carcinoma MX-1 Xenograft (intrarenal inoculation) in NU/NU Swiss (nude) mice
details: endpoint: mean tumor weight change; dose: 600.0 mg/kg/injection; schedule: Q04DX003 (sc); vehicle: saline with Tween-80; higher = larger tumour
Method: The antitumor activity of compounds was measured in mice bearing transplantable tumors. Survival or tumor size were measured and the results are expressed as the measurement made in the treated group (T) divided by the measurement made in the vehicle treated control group (C). The tumor model used in this assay is Human Mammary Carcinoma MX-1 Xenograft (intrarenal inoculation) in NU/NU Swiss (nude) mice
Records with an inconclusive call do not appear.

// known answers, use as guide
Brc1ccc(C[N+]23CN4CN(CN(C4)C2)C3)cc1
73 % of control
CCCCCCCCCCCCSC1=C(Cl)C(=O)C(OC)=C(OC)C1=O
77 % of control
N#CCCSC(=S)C1CCCC1=N (stereo not drawn)
87 % of control
CC(/C=C/c1ccccc1)=Nc1ccccc1
69 % of control
CN1C(=O)C(=Cc2ccc(O)cc2)C(=O)N(C)C1=O
92 % of control
CCC(=O)Sc1ccccc1C(=O)Nc1ccc(Cl)cc1
75 % of control
CCN(CC)CCNc1ccc(C)c2sc3ccc(O)cc3c(=O)c12
67 % of control
Nc1nc(N)c2cc(S(=O)(=O)c3ccccc3)ccc2n1
185 % of control

Let me know recorded T/C for ClC(Cl)(Cl)C1=NCc2nnn(Cc3ccccc3)c2N1 , thanks.
61 % of control

Let me know recorded T/C for O=C(c1cccnc1)c1cc(-c2ccccn2)c(=O)n2ccccc12 , thanks.
103 % of control

Let me know recorded T/C for COc1ccc(OC)c(/C=C/c2ccnc3ccccc23)c1 , thanks.
96 % of control

Let me know recorded T/C for CC(=O)Nc1ccc(O)c(O)c1 , thanks.
52 % of control

Let me know recorded T/C for Cn1c2ccccc2c2ccc3c(c21)C(=O)C=CC3=O , thanks.
88 % of control

Let me know recorded T/C for O=C(Nc1nncs1)c1cccs1 , thanks.
177 % of control

Let me know recorded T/C for Nc1nc(-c2ccccc2)c(Br)c(=O)[nH]1 , thanks.
93 % of control

Let me know recorded T/C for CN(C)CCOc1ccc2c(c1)C/C(=C/c1ncc([N+](=O)[O-])n1C)C2=O , thanks.
68 % of control

Let me know recorded T/C for NCC1CCC(C(=O)O)CC1 (stereo not drawn) , thanks.
115 % of control

Let me know recorded T/C for CC(=O)NC(Cc1ccc(F)cc1)C(=O)O (stereo not drawn) , thanks.
101 % of control
